target: ERα (Homo sapiens, UniProt P03372); assay: Degradation of ERα in MCF-7 cells (immunoblotting, 4 h); format: cell-based; settings: 10nM compound
Sequence (P03372 whole entry): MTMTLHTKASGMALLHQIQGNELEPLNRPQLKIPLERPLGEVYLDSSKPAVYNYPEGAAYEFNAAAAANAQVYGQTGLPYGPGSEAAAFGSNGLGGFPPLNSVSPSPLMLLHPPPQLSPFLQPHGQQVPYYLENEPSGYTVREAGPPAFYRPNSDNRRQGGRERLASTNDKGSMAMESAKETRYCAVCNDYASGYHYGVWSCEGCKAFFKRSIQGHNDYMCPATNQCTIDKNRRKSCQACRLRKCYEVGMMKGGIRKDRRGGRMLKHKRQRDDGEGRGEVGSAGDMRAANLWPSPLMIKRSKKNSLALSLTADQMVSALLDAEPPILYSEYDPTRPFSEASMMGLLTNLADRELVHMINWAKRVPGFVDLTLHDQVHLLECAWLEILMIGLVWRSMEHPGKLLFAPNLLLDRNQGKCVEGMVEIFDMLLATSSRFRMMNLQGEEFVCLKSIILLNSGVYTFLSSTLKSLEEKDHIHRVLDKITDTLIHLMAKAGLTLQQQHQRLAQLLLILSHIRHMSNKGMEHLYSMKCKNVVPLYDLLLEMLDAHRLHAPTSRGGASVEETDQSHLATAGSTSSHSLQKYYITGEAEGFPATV
measure: Degradation rate (%) of ERα in MCF-7 cells
Value expressed in %; do not type the unit.

Past entries and their recorded results:
compound	measured-value
O=C1CCC(N2Cc3c(ccc4c3OCC43CCN(C4CCN(C(=O)C5(F)CCN(c6ccc([C@@H]7c8ccc(O)cc8CC[C@@H]7c7ccccc7)cc6)CC5)CC4)CC3)C2=O)C(=O)N1 (stereo partly drawn)	72
O=C1CCC(N2C(=O)c3ccc4c(c3C2=O)OCC42CCN(C(=O)CN3CCC4(CCN(c5ccc([C@@H]6c7ccc(O)cc7CC[C@@H]6c6ccccc6)cc5)CC4)C3)CC2)C(=O)N1 (stereo partly drawn)	46

Continue with the compound presented below.
Request: // Input: C[C@@H]1Cc2c([nH]c3ccccc23)[C@@H](c2c(F)cc(N3CCN(C[C@H]4CC[C@H](C(=O)N5CCC6(CC5)COc5c6ccc6c5CN(C5CCC(=O)NC5=O)C6=O)CC4)CC3)cc2F)N1CC(F)F (stereo partly drawn) . Output its Degradation rate (%) of ERα in MCF-7 cells only.
Response: 62
